# credit: PubChem BioAssay

Task for the reader: assign each of the following molecules its reported composite z-score.
# Assay Name: small-molecule microarray binders of probe aDKK1, primary screen, biochemical, biotinylated probe, 635/667 nm fluorescence (AID 1099);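 further: score merges 667nm spot fluorescence with signal to noise across triplicate slides; reference of the scale not given here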
# Assay Conditions: higher = more signal
Number, no unit, nothing else.

stdin: Name the reported composite z-score value associated with the molecule C[C@H]1C2=C3C(CC[C@H]4C(OCc5ccc(F)cc5C(F)(F)F)OC[C@](C)([C@@H]34)N(C(=O)OC(C)(C)C)C2)C(CO)C1CO (stereo partly specified)
stdout: -0.0997

stdin: How about this molecule: CCOC(=O)C[C@H]1[C@H](OC(=O)c2ccccc2-c2ccccc2)[C@@H](NC(=O)c2ccc3ccccc3n2)c2cc(OCCCO)ccc2N1C(=O)c1ccc2ccccc2n1
stdout: -0.267

stdin: Same again, this time with COc1ccc([Si](C)(C)[C@@H]2[C@@H](CCO)O[C@]3(C(=O)N(Cc4cccc(N5C(=O)c6ccccc6Oc6ccccc65)c4)c4ccccc43)[C@H]2C)cc1
stdout: 0.0163

stdin: // next record NC(=O)N1C(=O)C2C(C1=O)C1C=C(CCCO)C2C(c2cccs2)N1Cc1cc2c(cc1Br)OCO2 (stereo unspecified)
stdout: -0.198

stdin: Input CCCN1C(=O)[C@]2(Cc3ccccc3)N=C(c3ccc(OCCCO)cc3)O[C@@H]2c2ccccc21
stdout: 0.206

stdin: Please do the same for COCCOC(=O)N1C(=O)[C@@]2(c3cc(C#CC4=CCCCC4)ccc31)[C@H](c1ccc(O)cc1)N1[C@H](c3ccccc3)[C@H](c3ccccc3)OC(=O)[C@H]1[C@@H]2C(=O)Nc1nc2ccccc2s1 as well.
stdout: 0.663

* * *

# Assay Name: MM1S myeloma cell viability, profiling panel, resazurin fluorescence, basal, 24 h, PK04 Diversity Set (AID 1174);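 further: MM1S multiple myeloma cell line; test concentration not given here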
# Assay Conditions: higher = more signal, called active from +8 up or from −8 down
Cut-off -0.6 on z-score, inclusive. At or above means Condition met; below means Condition not met.

stdin: Please check the record COc1ccc(C#Cc2ccc3c(c2)[C@]2(C(=O)N3)[C@H](C(=O)N3CCc4cc(OC)c(OC)cc4C3)[C@H]3C(=O)O[C@H](c4ccccc4)[C@H](c4ccccc4)N3[C@@H]2c2ccc(O)cc2)cc1 and state if its z-score is at or above -0.6.
stdout: Condition met

stdin: Now the same for CC(C)(C)OC(=O)CC[C@@]1(C(=O)O)N=C(c2ccc(OCCCO)cc2)O[C@@H]1c1ccccc1
stdout: Condition met

stdin: And the next one, O=C(N1CCCCC1)[C@@]1(Cc2ccccc2)COC(c2ccc(OCCCO)cc2)=N1 ?
stdout: Condition not met

stdin: // same read-out, input: C=C(C(=O)CC[C@H](OC(=O)c1cccnc1)c1cccc(OCCO)c1)C(C)C
stdout: Condition not met

stdin: Input COC(=O)[C@]1(CCS(=O)(=O)c2ccccc2)N=C(c2ccc(OCCCO)cc2)O[C@@H]1c1ccccc1CN=[N+]=[N-]
stdout: Condition not met

stdin: Then this compound: O=C1O[C@@H](c2ccccc2)[C@@H](c2ccccc2)N2[C@@H](c3ccc(O)cc3)[C@]3(C(=O)Nc4ccc(C#CCCO)cc43)[C@@H](C(=O)Nc3nc4ccccc4s3)[C@H]12
stdout: Condition met

stdin: Would you mind doing O=C1NC(=O)C2C1C=CC(C(O)c1ccc3c(c1)OCO3)N2Nc1ccccn1 (stereo not given) as well?
stdout: Condition not met

stdin: # repeat for [N-]=[N+]=Nc1ccccc1[C@@H]1OC(c2ccc(OCCCO)cc2)=N[C@]1(CCS(=O)(=O)c1ccccc1)C(=O)NCCN1CCOCC1
stdout: Condition met

stdin: Consider next the compound C=CC[C@@]1(C(=O)N2CCCCC2)N=C(c2ccc(OCCCO)cc2)O[C@@H]1c1ccccc1 in the same way.
stdout: Condition met

stdin: Record: COCCOC(=O)N1C(=O)[C@@]2(c3cc(C#Cc4ccc(OC)cc4)ccc31)[C@H](C(=O)NC[C@H](O)c1ccccc1)[C@H]1C(=O)O[C@H](c3ccccc3)[C@H](c3ccccc3)N1[C@@H]2c1ccc(O)cc1
stdout: Condition not met

stdin: Same for COC(=O)[C@@]1(Cc2ccccc2)[C@H]2c3cc(C(=O)N4CCCC4)[nH]c3C[C@H]2CN1C(=O)c1ccccc1
stdout: Condition not met

stdin: And the next one, COc1ccc([Si](C)(C)[C@H]2[C@H](CCn3cc([C@H](O)c4ccccc4)nn3)O[C@@]3(C(=O)N(Cc4ccc(N5CCOC5=O)cc4)c4ccccc43)[C@@H]2C)cc1 ?
stdout: Condition met

stdin: Param item: CC(=O)n1cc(C(O)C2C=CC3C(=O)N(Cc4ccccc4)C(=O)C3N2n2cnnc2)c2ccccc21 (stereo not given)
stdout: Condition not met

stdin: Okay, and C=C(COC)/C(=C/C[C@@H](OC(=O)c1ccncc1)c1cccc(OCCO)c1)c1cnc2ccccc2c1 ?
stdout: Condition not met
